B1: Twister Ribozyme (parent)
chain: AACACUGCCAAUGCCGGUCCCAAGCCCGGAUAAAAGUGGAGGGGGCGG

Variants of: B1
protocol description: self-cleavage, relative activity (ratio to wild type); higher = more cleavage; co-transcriptional
# self-cleavage per record follows

mutant name	self-cleavage
C27A A35U	0.742
A23G G44A	0.604
C26A G39A	0.107
C25U G36C	0.15
C15A U31C	0.718
G13A G44C	0.746
G24C A33G	0.101
A4C A35U	0.272
C20G G41C	0.0754
C46A G47C	0.952
A10C U12C	0.929
A1C G24U	0.111
C9U U18A	0.0726
C14G A33G	0.0896
U12A C25G	0.423
A10G G41C	0.384
C21U A35U	0.115
A22C G45U	0.946
C26G	0.449
G17A A23G	0.0743
C19U U31G	0.956
U12A C20A	0.181
